Entries and their measured cleaved RNA product abundance follow.
test system: Bacillus subtilis; experiment: cleaved RNA product abundance (RNA/gDNA barcode ratio) relative to median wild-type variant (ratio to wild type); higher = more accumulation of the downstream cleavage product; details: experiment (reporter, strain, medium): exp 4a: truncated aprE reporter, strain BJT201 with 2% xylose (RNase J1 expressed); cleavage site: cggR-gapA (positions -7 to +36 mutated)

seq-text	target-under-test	cleaved RNA product abundance
ACAGACGAAGGAGCCGCAAAGAAGTTATTAAGGGATGAATAGTCCCTCATTATAAATATCTCTCACTTATTTAAA	Bacillus subtilis	0.235
ACAGACGAAGGAGCCGCAAAGAATTTATTAAGGGATGAATAATGCATCAATATAAATATCTCTCACTTATTTAAA	Bacillus subtilis	0.2
ACAGACGAAGGAGCCGCAAAGAAGTTACTAAGGGATGAATAATCCCACAATATAAATATCTCTCACTTATTTAAA	Bacillus subtilis	0.153

Here is the next item to consider.
Ask: Given the entry `ACAGACGAAGGAGCCGCAAAGAAGTTATTAAGGGATGAATAATACCTCAATATAAATTTCTCTCACTTATTTAAA` , report its measured cleaved RNA product abundance.
Result: 0.15

* * *

tested on: Bacillus subtilis; assay: cleaved RNA product abundance (RNA/gDNA barcode ratio) relative to median wild-type variant (ratio to wild type); higher = more accumulation of the downstream cleavage product; details: experiment (reporter, strain, medium): exp 2b: truncated aprE reporter, strain BJT200; cleavage site: cggR-gapA (positions -7 to +36 mutated)
Classify by measured cleaved RNA product abundance: 1.0 if it is equal to or exceeds 0.2, 0.0 if it is smaller.

// known answers, use as guide
seq-text	group
ACAGACGAAGGAGCCGCAAAGAAGTTATTAAGGGATGAATACTCCCTCAAGATAAATATCTCTCACTTATTTAAA	0.0
ACAGACGAAGGAGCCGCAAAGAAGTTATTAATGGATGAATAATCCCTCAATTTAAATATCTCTCACTTATTTAAA	0.0
ACAGACGAAGGAGCCGCAAAAAAGTTATTAAGGGATGAAAAATCCCTCAATATAAATATCTCTCACTTATTTAAA	1.0
ACAGACGAAGGAGCCGCAAAGAAGTTATTAACGTATGAATAATCCCTCAATATAAATATCTCTCACTTATTTAAA	0.0
ACAGACGAAGGAGCCGCAAAAAAGTTACTAAGGGATGAATAATCCCTCAATATAAATATCTCTCACTTATTTAAA	1.0
ACAGACGAAGGAGCCGCAAAGAAGTTATTAAGGGATGAATAATCCCTCAATATAAACATTTCTCACTTATTTAAA	1.0
ACAGACGAAGGAGCCGCAAAGAAGTTATTAAGGTATGAATAATCCCTCTATATAAATATCTCTCACTTATTTAAA	0.0
ACAGACGAAGGAGCCGCAAAGAAGTTAATAATGGATGAATAATCCCTCAATATAAATATCTCTCACTTATTTAAA	0.0
ACAGACGAAGGAGCCGCAAAGAAGTTATTAAGGGACGAATAATCTCTCAATATAAATATCTCTCACTTATTTAAA	0.0
ACAGACGAAGGAGCCGCAAATAAGTTATTAAGGGATGAATAATCCCTAAATATAAATATCTCTCACTTATTTAAA	1.0

In the following, a different sequence is considered.
Ask: hey, is cleaved RNA product abundance for this one >= 0.2? `ACAGACGAAGGAGCCGCAAACAACTTATTAAGGGATGAATAATCCCTCAATATAAATATCTCTCACTTATTTAAA`
Result: 0.0

* * *

Entries and their measured cleaved RNA product abundance follow.
system: Bacillus subtilis; test: cleaved RNA product abundance (RNA/gDNA barcode ratio) relative to median wild-type variant (ratio to wild type); higher = more accumulation of the downstream cleavage product; details: experiment (reporter, strain, medium): exp 2b: truncated aprE reporter, strain BJT200; cleavage site: cggR-gapA (positions -7 to +36 mutated)
Note: the reply should be a number with no unit written.

seq-text	reported-property	measurement
ACAGACGAAGGAGCCGCATAGAAGTTATTAAGGGTTGAATAATCCCTCAATATAAATATCTCTCACTTATTTAAA	cleaved RNA product abundance	0.498
ACAGACGAAGGAGCCGCAAAGAAGTTAATAAAGGATGAATAATCCCTCAATATAAATATCTCTCACTTATTTAAA	cleaved RNA product abundance	0.143

Ask: Given the entry `ACAGACGAAGGAGCCGCAAAGAAGTTATTAAGGGATGAATAATCCATCAACATAAATATCTCTCACTTATTTAAA` , report its measured cleaved RNA product abundance.
Result: 0.164

Ask: Given the entry `ACAGACGAAGGAGCCGCAAAGAAGTTATTAATGGATGAATAATCCCTCAATATAAATATCTCTCACTTATTTAAA` , report its measured cleaved RNA product abundance.
Result: 0.122

Ask: Given the entry `ACAGACGAAGGAGCCGCAAAGAAGTTAGTAAGGGATGAATAATCCCTCAATATAAATATCTCTCACTTATTTAAA` , report its measured cleaved RNA product abundance.
Result: 0.306

Ask: Given the entry `ACAGACGAAGGAGCCGCAAAGAAGTTATTAAGGGATGAATAATCCCTCAATATAAATATATCTCACTTATTTAAA` , report its measured cleaved RNA product abundance.
Result: 0.976

Ask: Given the entry `ACAGACGAAGGAGCCGCAAAGAAGTTATTTAGGGATGAATAATCCCTCAAGATAAATATCTCTCACTTATTTAAA` , report its measured cleaved RNA product abundance.
Result: 0.16

* * *

system: Bacillus subtilis; test: cleaved RNA product abundance (RNA/gDNA barcode ratio) relative to median wild-type variant (ratio to wild type); higher = more accumulation of the downstream cleavage product; settings: experiment (reporter, strain, medium): exp 4a: truncated aprE reporter, strain BJT201 with 2% xylose (RNase J1 expressed); cleavage site: cggR-gapA (positions -7 to +36 mutated)
Entries and their measured cleaved RNA product abundance follow.

seq-text	measurement
ACAGACGAAGGAGCCGCAAAGAAGTTATTAAGGGATGAATAATCCGTCAAAATAAATATCTCTCACTTATTTAAA	0.262
ACAGACGAAGGAGCCGCAAAGAAGTTATTAAGGGATGTATAATACCTCAATATAAATATCTCTCACTTATTTAAA	0.103
ACAGACGAAGGAGCCGCAGATAAGTTATTAAGGGATGAATAATCCCTCAATATAAATATCTCTCACTTATTTAAA	0.636

Ask: Given the entry `ACAGACGAAGGAGCCGCAACGAAGTTATTAAGGGATAAATAATCCCTCAATATAAATATCTCTCACTTATTTAAA` , report its measured cleaved RNA product abundance.
Result: 0.739

* * *

test system: Bacillus subtilis; experiment: cleaved RNA product abundance (RNA/gDNA barcode ratio) relative to median wild-type variant (ratio to wild type); higher = more accumulation of the downstream cleavage product; details: experiment (reporter, strain, medium): exp 8a: truncated aprE reporter, strain BJT201 with 2% xylose (RNase J1 expressed); cleavage site: glnRA (positions -5 to +31 mutated)
Classify by measured cleaved RNA product abundance: y if it is equal to or exceeds 0.5, n if it is smaller.

// known answers, use as guide
seq-text	target-under-test	group
CGACATGTCCCGCTTCTTTCATTAAACCGTTAGCAACTGTTTTGCTACATACATTTACCTTTTAAGAGGAGGAAT	Bacillus subtilis	n
CGACATGTCCCGCTTCTTTCATTAATCCGTTAGCAACAGTTTTACTATATACATTTACCTTTTAAGAGGAGGAAT	Bacillus subtilis	y
CGACATGTCCCGCTTCTTTCATTAATCCCTTAGAAACTGTTTTGCTATATACATTTACCTTTTAAGAGGAGGAAT	Bacillus subtilis	n
CGACATGTCCCGCTTCTTTCATTAATCCGTTACCAACTGTTTTGCTATACACATTTACCTTTTAAGAGGAGGAAT	Bacillus subtilis	n

Ask: hey, is cleaved RNA product abundance for this one >= 0.5? `CGACATGTCCCGCTTCTTTCATTAATCCGTTTACAACTGTTTTGCTATATACATTTACCTTTTAAGAGGAGGAAT`
Result: n

Ask: hey, is cleaved RNA product abundance for this one >= 0.5? `CGACATGTCCCGCTTCTTTCATTATTCCGTTAGCAACTGTTTTGCTATATACATTAACCTTTTAAGAGGAGGAAT`
Result: y

* * *

tested on: Bacillus subtilis; assay: cleaved RNA product abundance (RNA/gDNA barcode ratio) relative to median wild-type variant (ratio to wild type); higher = more accumulation of the downstream cleavage product; settings: experiment (reporter, strain, medium): exp 4a: truncated aprE reporter, strain BJT201 with 2% xylose (RNase J1 expressed); cleavage site: cggR-gapA (positions -7 to +36 mutated)
Entries and their measured cleaved RNA product abundance follow.

Some sequences with known cleaved RNA product abundance results, for comparison:
seq-text	cleaved RNA product abundance
ACAGACGAAGGAGCCGCAAAGAAGTTATTCAGGTATGTATAATCCCTCAATATAAATATCTCTCACTTATTTAAA	0.143
ACAGACGAAGGAGCCGCAAAGAAGTTATTAAGGGATAAATAATCCCTCAAGATAAATATCTCTCACTTATTTAAA	0.29

Ask: Given the entry `ACAGACGAAGGAGCCGCAAAGAAGTTATTAAGGCATGAATAATCCCTCAATACAAATATCTCTCACTTATTTAAA` , report its measured cleaved RNA product abundance.
Result: 0.058

Ask: Given the entry `ACAGACGAAGGAGCCGCAACGAAGTTATTAAAGGATGAATAATCCCTCAATATAAATATCTCTCACTTATTTAAA` , report its measured cleaved RNA product abundance.
Result: 0.213
